Data provenance is patent US20140100172A1.

# ASSAYED_SYSTEM: human chemokine receptor type 4 (CXCR4) (human)
# EXPERIMENT: radioligand competition binding; tracer 125I-SDF-1α
READOUT: pIC50
By convention, pIC50 is the negative base-10 log of a molar concentration.

Annotate the substance CPCR4, cyclo[D-Tyr-Arg-Arg-Nal-Gly] with its measured pIC50.
8.26
